These data points were gathered from PubChem BioAssay (NCI).

Tested on: NCI-H460 lung
TEST: NCI tumour cell line growth inhibition, 48 h
The following compounds are listed with their measured TGI values.

Some compounds with known TGI results, for comparison:
Can you share its TGI? I mean this compound: CCCc1cc2cc(-n3nc(C)c4c3CC(C)(C)CC4=O)cc(NC3CCC(O)CC3)c2c(=O)[nH]1 (stereo not given)
> 100 µM

// returns reported TGI for input COc1cc(C#N)cc(OC)c1OCCOCCOc1c(OC)cc(C#N)cc1OC
> 100 µM

Requested read-out: TGI. Entry: CN1CCC[C@@H]1CCO[C@](C)(c1ccccc1)c1ccc(Cl)cc1
17.1 µM

Could you now look at the following compound, please?
I would be grateful if you could share the reported TGI for COc1ccccc1C(C1=C(O)COC1=O)c1cc2c(cc1OC(C)=O)OCO2 (stereo not given) .
> 100 µM
